Test system: S. pneumoniae PRC0-91
Test: Antimicrobial activity, MIC against pneumococci (agar dilution)
Type: cell-based
Details: sensitivity disk agar-N+5% horse blood, inoculum 10^6 CFU/ml
Assign minimal inhibitory concentration (MIC) to each entry below.

Ask: Item under review: "CCC[C@@H]1C[C@@H](C(=O)N[C@@H]([C@H]2O[C@H](SC)[C@H](O)[C@@H](O)[C@H]2O)[C@H](C)Sc2ccc(NC(=O)CC)cn2)N(C)C1" . Reported minimal inhibitory concentration (MIC)?
Reply: 2 µg/mL

Ask: Next entry: CCCC1CC(C(=O)NC(C(C)Sc2nnc(NC(=O)COC)s2)C2OC(SC)C(O)C(O)C2O)N(C)C1 (stereo not drawn)
Reply: 8 µg/mL

Ask: And "CCC[C@@H]1C[C@@H](C(=O)N[C@@H]([C@H]2O[C@H](SC)[C@H](O)[C@@H](O)[C@H]2O)[C@H](C)Sc2ccc(C(=O)N3CCCC3)cc2)N(C)C1" ?
Reply: 2 µg/mL

====

Tested on: S. pneumoniae PRC0-91
Assay: Antimicrobial activity, MIC against pneumococci (agar dilution)
Type: cell-based
Settings: sensitivity disk agar-N+5% horse blood, inoculum 10^6 CFU/ml
Consider the following compounds; for each one, report its minimal inhibitory concentration (MIC).
Give the value, in units of µg/mL, as a plain number.

Ask: // lookup minimal inhibitory concentration (MIC) for "CCC[C@H]1CN[C@H](C(=O)N[C@@H]([C@H]2O[C@H](SC)[C@H](O)[C@@H](O)[C@H]2O)[C@H](C)Sc2nnc(-c3sccc3N)s2)C1"
Reply: 2

Ask: What about CCCC1CC(C(=O)NC(C(C)Sc2ccc(N(C)C(=O)COC)cc2)C2OC(SC)C(O)C(O)C2O)N(C)C1 (stereo not drawn) ?
Reply: 8

Ask: What about "CC[C@@H]1CCN(C)[C@H](C(=O)N[C@@H]([C@H]2O[C@H](SC)[C@H](O)[C@@H](O)[C@H]2O)[C@H](C)Sc2nnc(-c3ccc(F)cc3[N+](=O)[O-])s2)C1" ?
Reply: 4
